Molecular target: T1, IL10Rα/IL2Rγ receptor (human) (UniProt Q13651)
T1 sequence (looked up) 1: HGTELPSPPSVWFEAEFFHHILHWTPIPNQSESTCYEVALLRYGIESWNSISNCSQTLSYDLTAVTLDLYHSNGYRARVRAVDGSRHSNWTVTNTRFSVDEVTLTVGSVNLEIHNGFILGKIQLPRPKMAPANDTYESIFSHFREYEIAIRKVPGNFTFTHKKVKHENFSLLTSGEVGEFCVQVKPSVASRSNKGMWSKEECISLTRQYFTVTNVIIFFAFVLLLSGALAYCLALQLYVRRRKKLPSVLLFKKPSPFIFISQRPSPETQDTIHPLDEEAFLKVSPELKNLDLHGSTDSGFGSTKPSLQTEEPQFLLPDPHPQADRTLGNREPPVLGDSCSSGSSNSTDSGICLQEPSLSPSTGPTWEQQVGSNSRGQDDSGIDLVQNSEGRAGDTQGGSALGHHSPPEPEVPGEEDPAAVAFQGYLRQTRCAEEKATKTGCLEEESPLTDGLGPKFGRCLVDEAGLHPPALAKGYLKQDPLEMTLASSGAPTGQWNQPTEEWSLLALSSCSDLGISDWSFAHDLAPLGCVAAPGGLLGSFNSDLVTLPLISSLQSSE
T1 sequence (looked up) 2: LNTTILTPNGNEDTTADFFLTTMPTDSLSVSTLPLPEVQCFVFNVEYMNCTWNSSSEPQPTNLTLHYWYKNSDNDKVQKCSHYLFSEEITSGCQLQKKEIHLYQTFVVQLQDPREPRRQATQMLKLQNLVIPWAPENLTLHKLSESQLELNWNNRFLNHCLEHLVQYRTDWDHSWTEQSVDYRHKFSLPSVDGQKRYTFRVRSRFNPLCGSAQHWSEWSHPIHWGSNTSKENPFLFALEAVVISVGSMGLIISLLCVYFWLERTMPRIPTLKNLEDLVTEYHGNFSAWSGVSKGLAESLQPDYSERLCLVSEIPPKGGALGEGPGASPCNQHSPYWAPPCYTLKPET
Assay: cell-based or functional assay
Entries and their measured IL-1β secretion, LPS treated monocytes, at 0.01 µM follow.
Write the value in pg/mL as a bare number.

Example cases with answers are listed next.
**Q:** Please supply the value of reported IL-1β secretion, LPS treated monocytes, at 0.01 µM for the item hIL10Ra_VHH14 - hIL2Rg_VHH19, linker …, tag his (bispecific antibody, not shown: small tags and cut ends) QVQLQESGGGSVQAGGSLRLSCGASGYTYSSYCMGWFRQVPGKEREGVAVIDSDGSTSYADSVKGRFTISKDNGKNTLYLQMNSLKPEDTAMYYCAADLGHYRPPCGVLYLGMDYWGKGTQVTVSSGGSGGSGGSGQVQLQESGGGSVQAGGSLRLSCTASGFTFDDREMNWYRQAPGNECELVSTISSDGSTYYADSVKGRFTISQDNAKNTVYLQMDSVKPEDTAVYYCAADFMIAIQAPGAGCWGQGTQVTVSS
**A:** 6020

**Q:** # return recorded IL-1β secretion, LPS treated monocytes, at 0.01 µM for input hIL10Ra_VHH14 - hIL2Rg_VHH19, No linker, tag his (bispecific antibody, not shown: small tags and cut ends) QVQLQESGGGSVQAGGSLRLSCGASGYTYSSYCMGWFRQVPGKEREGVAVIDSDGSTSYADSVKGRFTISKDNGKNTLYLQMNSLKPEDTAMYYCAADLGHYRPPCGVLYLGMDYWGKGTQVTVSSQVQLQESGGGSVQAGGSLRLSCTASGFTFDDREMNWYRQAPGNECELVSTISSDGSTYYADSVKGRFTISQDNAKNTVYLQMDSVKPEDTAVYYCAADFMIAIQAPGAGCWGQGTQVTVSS
**A:** 5370

Pending binder:
**Q:** State its IL-1β secretion, LPS treated monocytes, at 0.01 µM: hIL10Ra_VHH14 - hIL2Rg_VHH19, linker GGGS, tag his (bispecific antibody, not shown: small tags and cut ends) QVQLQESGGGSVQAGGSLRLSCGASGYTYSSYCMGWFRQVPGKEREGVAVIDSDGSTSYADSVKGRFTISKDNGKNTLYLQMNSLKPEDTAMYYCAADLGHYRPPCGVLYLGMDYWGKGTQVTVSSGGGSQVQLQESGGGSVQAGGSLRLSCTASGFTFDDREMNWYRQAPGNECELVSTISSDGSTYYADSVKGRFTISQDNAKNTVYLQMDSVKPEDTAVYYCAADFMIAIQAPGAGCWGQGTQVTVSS
**A:** 5760
